Data origin: patent US9181255B2

target: SYK (Homo sapiens, UniProt P43405); test: SYK inhibition assay: SYK-mediated phosphorylation of FAM-labeled substrate (Caliper microfluidic); type: biochemical; details: read-out: SYK Inhibition (pIC50) (converted)
# note: exactly 30 nM is not below, so it is 0; use 1 for IC50 strictly under it

1) N[C@H]1CCCC[C@H]1Nc1nc2c(c(-c3cnn(Cc4ccccc4)c3)n1)C(=O)NC2; 0
2) Cc1cccc(Nc2nc(N[C@H](CC(C)C)C(N)=O)cc3c2C(=O)NC3)c1; 1
3) Cc1cccc(Nc2nc(NCC3CCCN3)nc3c2C(=O)NC3)c1 (stereo not shown); 0
4) Cc1ncc(-c2nc(N[C@@H]3CCOC[C@@H]3N)c(F)c3c2C(=O)NC3)s1; 1
5) N[C@H]1CCCC[C@H]1Nc1nc2c(c(Nc3cccc(Cl)c3)n1)C(=O)NC2; 1
6) Cn1cc(-c2nc(-c3cnn(C)c3)c3c(c2F)CNC3=O)cn1; 0
7) CC(C)n1cc(-c2nc(N[C@@H]3CCCC[C@@H]3N)c(F)c3c2C(=O)NC3)cn1; 0
8) Cc1csc(-c2nc(N[C@@H]3CCOC[C@@H]3N)c(F)c3c2C(=O)NC3)c1; 1
9) CC(C)C[C@@H](Nc1nc(-c2cncs2)c2c(c1F)CNC2=O)C(N)=O; 1
10) CCN1CCN(c2nc3c(c(Nc4cccc(C)c4)n2)C(=O)NC3)CC1; 0
11) Cc1cn(-c2nc(N[C@@H]3CCCC[C@@H]3N)c(F)c3c2C(=O)NC3)cn1; 0
12) CC(C)C[C@@H](Nc1nc(-c2ccsc2)c2c(c1F)CNC2=O)C(N)=O; 0
13) Cc1cccc(Nc2nc(NCC(C)(C)N)nc3c2C(=O)NC3)c1; 0
14) N[C@H]1CCCC[C@H]1Nc1cc2c(c(Nc3ccc4cn[nH]c4c3)n1)C(=O)NC2; 1
15) N[C@H]1COCC[C@H]1Nc1nc(-c2cncs2)c2c(c1F)CNC2=O; 1
16) Cn1cc(-c2nc(N3CC[C@H](N)C3)c(F)c3c2C(=O)NC3)cn1; 0
17) N[C@H]1CCCC[C@H]1Nc1nc(-c2csc3ccccc23)c2c(c1F)CNC2=O; 0
18) N[C@H]1CCCC[C@H]1Nc1nc2c(c(-c3ccn[nH]3)n1)C(=O)NC2; 0
19) CCCn1cc(-c2nc(N[C@@H]3CCCC[C@@H]3N)nc3c2C(=O)NC3)cn1; 0
20) N[C@H]1COCC[C@H]1Nc1nc(-c2cccs2)c2c(c1F)CNC2=O; 1
21) N[C@H]1CCCC[C@H]1Nc1nc2c(c(Nc3ccc4cn[nH]c4c3)n1)C(=O)NC2; 1
22) COC[C@H](N)CNc1cc2c(c(Nc3cccc(C)c3)n1)C(=O)NC2; 0
23) Cc1cccc(Nc2nc(NCC(N)C(F)(F)F)cc3c2C(=O)NC3)c1 (stereo not shown); 0
24) Cn1ccc(-c2nc(N[C@@H]3CCCC[C@@H]3N)c(F)c3c2C(=O)NC3)n1; 0
25) Cn1cc(-c2nc(N[C@@H]3CCCC(F)(F)[C@@H]3N)c(F)c3c2C(=O)NC3)cn1 (relative stereo); 0
26) Cc1cc(Nc2nc(N[C@@H]3CCCC[C@@H]3N)cc3c2C(=O)NC3)ccc1F; 1
27) Cc1cccc(Nc2nc(N[C@@H]3COC[C@@H]3N)cc3c2C(=O)NC3)c1 (relative stereo); 0
28) Cc1c(N[C@@H]2CCCC[C@@H]2N)nc(-c2cnn(C)c2)c2c1CNC2=O; 1
29) Nc1ncc(-c2nc(N[C@@H]3CCCC[C@@H]3N)c(F)c3c2C(=O)NC3)s1; 1
30) Cc1cccc(Nc2nc(N3CCCCC3CN)nc3c2C(=O)NC3)c1 (stereo not shown); 0
31) Cc1cccc(Nc2nc(N[C@@H]3CCCC[C@@H]3O)nc3c2C(=O)NC3)c1 (relative stereo); 0
32) CC(C)C[C@@H](Nc1nc(-c2cc(C#N)cs2)c2c(c1F)CNC2=O)C(N)=O; 1
33) Cc1ncc(-c2nc(N[C@@H]3CCCC[C@@H]3N)c(F)c3c2C(=O)NC3)s1; 0
34) Cc1ccc(-c2nc(N[C@H](CC(C)C)C(N)=O)c(F)c3c2C(=O)NC3)s1; 1
